The following compounds are shown together with reported pre-emergence activity against ALOMY values.
# Test system: ALOMY
# Protocol: A. Herbicidal pre-emergence action on harmful plants (Tables A)
# Assay type: in vivo, Alopecurus myosuroides
# Settings: application rate 1280 g/ha; Table A9a
Please respond with the number in % and leave the unit unwritten.

[ask] # get_value(readout='pre-emergence activity against ALOMY', item= Cn1cc(C(=O)N2CCCC2Cc2ccccc2F)c(COc2ccccc2)n1 (racemic) )
[reply] 100

[ask] Please look up its pre-emergence activity against ALOMY: CCn1cc(C(=O)N2CCCC2Cc2ccccc2F)c(COC)n1 (racemic)
[reply] 90

[ask] Look up pre-emergence activity against ALOMY for this compound: COCc1c(C(=O)N2CCCC2Cc2ccccc2Cl)cnn1C (racemic)
[reply] 90

[ask] What pre-emergence activity against ALOMY value was documented for this compound, COCc1nn(C)cc1C(=O)N1CCCC1Cc1cc(F)ccc1F (single isomer, unassigned) ?
[reply] 90

[ask] Requested read-out: pre-emergence activity against ALOMY. Entry: COCc1nn(C)cc1C(=O)N1CCCC1Cc1cccc(F)c1F (single isomer, unassigned) [Example I-088]
[reply] 100

[ask] Entry Cn1cc(C(=O)N2CCCC2Cc2ccc(F)cc2F)c(COc2ccccc2)n1 (racemic) : reported pre-emergence activity against ALOMY = ?
[reply] 100

----------
# System: ALOMY
# Protocol: A. Herbicidal pre-emergence action on harmful plants (Tables A)
# Type: in vivo, Alopecurus myosuroides
# Settings: application rate 1280 g/ha; Table A9a
Below: a set of entries, each annotated with reported pre-emergence activity against ALOMY.
Give just the number in %; leave the unit off.

Illustrative cases are given below, each with its answer.
[ask] Provide the documented pre-emergence activity against ALOMY with ALOMY as the system for Cn1cc(C(=O)N2CCCC2Cc2ccccc2F)c(COCC(F)F)n1 (racemic)
[reply] 90

[ask] Report pre-emergence activity against ALOMY for COCc1nn(C(=O)NC2CC2)cc1C(=O)N1CCCC1Cc1ccccc1F (racemic) tested on ALOMY.
[reply] 90

[ask] Item COCc1nn(C)cc1C(=O)N1CCCC1Cc1c(F)cccc1F (racemic) [Example I-081] with ALOMY - pre-emergence activity against ALOMY?
[reply] 100

[ask] Could you share what pre-emergence activity against ALOMY was measured for COCc1c(C(=O)N2CCCC2Cc2ccc(F)cc2F)cnn1C (racemic) , tested on ALOMY?
[reply] 100

[ask] Any idea what pre-emergence activity against ALOMY came out for COCc1nn(C)cc1C(=O)N1CCCC1Cc1ncccc1F (racemic) on ALOMY?
[reply] 90

---
[ask] Give recorded pre-emergence activity against ALOMY with ALOMY for the following compound: COCc1nn(C)cc1C(=O)N1CCCC1C(C)c1ccccc1F (stereo not drawn)
[reply] 90

[ask] Fill in the recorded pre-emergence activity against ALOMY for this compound, with ALOMY as test system: COCc1nn(C(=O)OC(C)(C)C)cc1C(=O)N1CCCC1Cc1ccccc1F (racemic)
[reply] 90

[ask] So what pre-emergence activity against ALOMY did CNC(=O)n1cc(C(=O)N2CCCC2Cc2ccccc2F)c(COC)n1 (racemic) get with ALOMY?
[reply] 90

[ask] # query: pre-emergence activity against ALOMY | item COCc1nn(C)cc1C(=O)N1CCCC1Cc1c(F)cccc1F (single isomer, unassigned) [Example I-082] | system: ALOMY
[reply] 90

----------
# Tested on: LOLRI
# Protocol: A. Herbicidal pre-emergence action on harmful plants (Tables A)
# Assay type: in vivo, Lolium rigidum
# Settings: application rate 320 g/ha; visual grading after ca. 3 weeks vs untreated controls; 100% = plants have died off, 0% = as control plants
Recorded endpoint: pre-emergence activity against LOLRI (%)
Respond with the bare value in %.

Example cases with answers are listed next.
[ask] What measured pre-emergence activity against LOLRI is associated with COCc1nn(C)cc1C(=O)N1CCCC1Cc1ccccc1F (racemic) [Example I-002] on LOLRI?
[reply] 90

[ask] Entry COCc1nn(C)cc1C(=O)N1CCCC1C(O)c1ccccc1F (single isomer, unassigned) , system LOLRI: what pre-emergence activity against LOLRI was measured?
[reply] 90

[ask] LOLRI / pre-emergence activity against LOLRI / COCc1nn(C)cc1C(=O)N1CCCC1Cc1cc(F)ccc1F (single isomer, unassigned) : value?
[reply] 100

[ask] pre-emergence activity against LOLRI of COCc1c(C(=O)N2CCCC2Cc2ccccc2Cl)cnn1C (racemic) on LOLRI?
[reply] 90

[ask] Query the reported pre-emergence activity against LOLRI for LOLRI; item: CCOCc1c(C(=O)N2CCCC2Cc2ccccc2F)cnn1C (single isomer, unassigned)
[reply] 90

[ask] Tell me reported pre-emergence activity against LOLRI for COCc1nn(C)cc1C(=O)N1CCCC1C(C)c1ccccc1F (stereo not shown) , tested with LOLRI.
[reply] 100

Okay, now this molecule:
[ask] Field: pre-emergence activity against LOLRI (LOLRI). Entry: COCc1nn(C)cc1C(=O)N1CCCC1Cc1ccccc1OC (racemic)
[reply] 90

----------
# Tested on: ALOMY
# Protocol: A. Herbicidal pre-emergence action on harmful plants (Tables A)
# Type: in vivo, Alopecurus myosuroides
# Settings: application rate 1280 g/ha; Table A9a
# From the text: Seeds of mono- and dicotyledonous weed plants were sown in plastic pots (double sowings with one species of mono- and one species of dicotyledonous weed plants per pot), in sandy loam, and covered with soil. […]
Quick reference for pre-emergence activity against ALOMY among some compounds
Give your result in % as a bare value.

Below are worked cases with known answers.
[ask] Would you kindly share the measured pre-emergence activity against ALOMY for COCc1nn(C)cc1C(=O)N1CCCC1Cc1ccc(F)cc1F (single isomer, unassigned) [Example I-079] ?
[reply] 90

[ask] Data request, read-out pre-emergence activity against ALOMY, for COCc1nn(C)cc1C(=O)N1CCCC1Cc1ccccc1F (single isomer, unassigned) [Example I-003]
[reply] 100

[ask] Which value of pre-emergence activity against ALOMY has been reported for COCc1nn(C)cc1C(=O)N1CCCC1Cc1ccccc1OC (racemic) [Example I-014] in the records?
[reply] 90

[ask] What value of pre-emergence activity against ALOMY has been recorded for this entry: COCc1c(C(=O)N2CCCC2Cc2cc(F)ccc2F)cnn1C (single isomer, unassigned) [Example I-188]
[reply] 90

[ask] // query pre-emergence activity against ALOMY value for entry COCc1c(C(=O)N2CCCC2Cc2ccccc2F)cnn1C (single isomer, unassigned) [Example I-157]
[reply] 100

---
[ask] Given the entry Cn1ncc(C(=O)N2CCCC2Cc2ccccc2F)c1COCC(F)(F)F (racemic) [Example I-163] , report its measured pre-emergence activity against ALOMY.
[reply] 100
